Consider the following binders and their measured Kd readings.
target: bacILT7 24-223 (human, UniProt P59901 24-223, fluorescent label (Protein Labeling Kit RED-NHS)); assay: MST
Sequence (P59901 24-223): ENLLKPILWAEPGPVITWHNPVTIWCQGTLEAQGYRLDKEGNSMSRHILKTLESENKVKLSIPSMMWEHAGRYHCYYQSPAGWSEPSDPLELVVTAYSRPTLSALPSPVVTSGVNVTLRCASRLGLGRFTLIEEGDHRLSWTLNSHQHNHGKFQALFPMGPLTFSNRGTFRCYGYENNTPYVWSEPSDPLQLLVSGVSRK
Express the result in µM but write the number alone.

Use these answered entries as a reference point.
binder="BST2 ectodomain (residues 47 to 159) L70D (domain or fragment, human, UniProt Q10589 47-159, looked up) KANSEACRDGLRAVMECRNVTHLDQQELTEAQKGFQDVEAQAATCNHTVMALMASLDAEKAQGQKKVEELEGEITTLNHKLQDASAEVERLRRENQVLSVRIADKKYYPSSQD" assayresult=5.55
binder="BST2 ectodomain (residues 47 to 159) WT (domain or fragment, human, UniProt Q10589 47-159, looked up) KANSEACRDGLRAVMECRNVTHLLQQELTEAQKGFQDVEAQAATCNHTVMALMASLDAEKAQGQKKVEELEGEITTLNHKLQDASAEVERLRRENQVLSVRIADKKYYPSSQD" assayresult=2.45
binder="BST2 ectodomain (residues 47 to 159) Q87H (domain or fragment, human, UniProt Q10589 47-159, looked up) KANSEACRDGLRAVMECRNVTHLLQQELTEAQKGFQDVEAHAATCNHTVMALMASLDAEKAQGQKKVEELEGEITTLNHKLQDASAEVERLRRENQVLSVRIADKKYYPSSQD" assayresult=5.06
binder="BST2 ectodomain (residues 47 to 159) T90P (domain or fragment, human, UniProt Q10589 47-159, looked up) KANSEACRDGLRAVMECRNVTHLLQQELTEAQKGFQDVEAQAAPCNHTVMALMASLDAEKAQGQKKVEELEGEITTLNHKLQDASAEVERLRRENQVLSVRIADKKYYPSSQD" assayresult=4.49

// next item, Kd requested
Entry BST2 ectodomain (residues 47 to 159) L127C (domain or fragment, human, UniProt Q10589 47-159, looked up) KANSEACRDGLRAVMECRNVTHLLQQELTEAQKGFQDVEAQAATCNHTVMALMASLDAEKAQGQKKVEELEGEITTLNHKCQDASAEVERLRRENQVLSVRIADKKYYPSSQD — recorded Kd = 6.45
